- Target Under Test: T1, human TROP2 protein (Sino Biological, #10428-H08H) (human, UniProt P09758 27-274)
- T1 construct: bought protein; also called human Trop2 protein antigen (His tag); not shown: His tag
- T1 sequence (looked up): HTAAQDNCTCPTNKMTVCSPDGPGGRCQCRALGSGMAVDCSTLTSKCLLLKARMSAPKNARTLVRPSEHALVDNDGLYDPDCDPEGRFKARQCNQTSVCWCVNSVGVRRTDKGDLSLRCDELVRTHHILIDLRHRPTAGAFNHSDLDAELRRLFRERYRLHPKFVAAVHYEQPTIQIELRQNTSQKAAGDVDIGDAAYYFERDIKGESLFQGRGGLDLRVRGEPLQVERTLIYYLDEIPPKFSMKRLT
- Assay Method Text: BLI, Octet RED96, AHC sensor
Observation Type: koff

Observe how each entry below is paired with its result.
Binder: PR001128 (antibody, human IgG1, kappa, V domains shown, fully human IgG1/kappa; also called antibody No. (1)) VH: QVQLQESGPGLVKPSGTLSLTCAVSGGSISSSNWWSWVRQPPGKGLEWIGEIFHSGTTYYNPSLKSRVTILVDKSKNQFSLKLSSVTAADTAVYYCARDNTKSWDHFDHWGQGTLVTVSS VL: EIVLTQSPATLSLSPGERATLSCRASQSVGSYLAWYQQKPGQAPSLLIYDASNRATGIPARFSGSGSGTDFTLTISSLEPEDFAVYYCQQRTNWYTFGQGTKLEIKR
koff: < 1e-07 s⁻¹
--
Binder: PR001166 (antibody, human IgG1, kappa, V domains shown, fully human IgG1/kappa; also called antibody No. (27)) VH: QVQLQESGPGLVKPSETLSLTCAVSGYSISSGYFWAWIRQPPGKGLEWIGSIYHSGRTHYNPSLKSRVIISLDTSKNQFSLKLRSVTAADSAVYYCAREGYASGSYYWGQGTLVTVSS VL: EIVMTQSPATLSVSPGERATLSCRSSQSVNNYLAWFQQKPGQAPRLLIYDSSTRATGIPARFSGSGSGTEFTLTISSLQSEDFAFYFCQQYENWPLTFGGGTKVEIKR
koff: < 1e-07 s⁻¹

Continue with the next binder.
The measured koff associated with PR001170 (antibody, human IgG1, kappa, V domains shown, fully human IgG1/kappa; also called antibody No. (29)) VH: QVQLQESGPGLVKPSETLSLTCAVSGYSINSGYFWAWIRQPPGMGLEWIGSIYHSGRTHYNPSLKSRVIISLDTSKNQFSLKLRSVTAADSAVYYCAREGYASGSYYWGQGTLVTVSS VL: EIVMTQSPATLSVSPGERATLSCRSSQSVNSYLAWFQQKPGQAPRLLIYDSSTRATGIPARFSGSGSGTEFTLTISSLQSEDFAFYFCQQYENWPLTFGGGTKVEIKR reads < 1e-07 s⁻¹
